system: A549 cells; experiment: MTT assay, inhibition of tumour cell growth; assay type: cell-based, human; conditions: 24 h, mean ± s, n = 3
pIC50: −log10 of the molar value.
Would you mind labelling by pIC50? At or over 5 is yes (1), under is no (0).

Past entries and their recorded results:
>  <molecule>
O=C1C(=Cc2cc(Br)ccc2Cl)CNCC1=Cc1cc(Br)ccc1Cl

>  <assigned.category>
no (0)

$$$$
>  <molecule>
O=C1C(=Cc2cc(Cl)ccc2Cl)CNCC1=Cc1cc(Cl)ccc1Cl

>  <assigned.category>
yes (1)

$$$$

In: # check: pIC50 of N.N.[Cl][Pt][Cl] [Cisplatin solution, reference compound] is greater than or equal to 5
Out: no (0)

In: # check: pIC50 of O=C1C(=Cc2ccc(F)cc2Br)CNCC1=Cc1ccc(F)cc1Br is greater than or equal to 5
Out: no (0)

In: # check: pIC50 of O=C1C(=Cc2ccc(Cl)cc2Br)CNCC1=Cc1ccc(Cl)cc1Br is greater than or equal to 5
Out: no (0)

Data provenance is paper PMC12734371.
